Test: Half life in Sprague-Dawley rat plasma at 1 mg/kg, iv
Format: ADME, organism-based
Design: dose 1 mg/kg, route intravenous
Metric: half-life (h)

| Compound | Metric | Assay Result |
| --- | --- | --- |
| CCCCOCCOc1ccc(-c2ccc3c(c2)/C=C(/C(=O)Nc2ccc([S@@+]([O-])Cc4cncn4CCC)cc2)CCCN3CC(C)C)cc1.CS(=O)(=O)O [CENICRIVIROC MESYLATE] | half-life | 4.85 |

###

Experiment: Plasma concentration in cynomolgus monkey after 5 min at 1 mg/kg, iv
Format: ADME, organism-based, Macaca fascicularis
Design: dose 1 mg/kg, route intravenous

| Compound | concentration at 5 min, ng/mL |
| --- | --- |
| CCCCOCCOc1ccc(-c2ccc3c(c2)/C=C(/C(=O)Nc2ccc([S@@+]([O-])Cc4cncn4CCC)cc2)CCCN3CC(C)C)cc1.CS(=O)(=O)O [CENICRIVIROC MESYLATE] | 3110 |

###

Test: AUC (0-24h) in Sprague-Dawley rat at 1 mg/kg, iv
Assay type: ADME, organism-based
Set-up: time < 24 hr, dose 1 mg/kg, route intravenous
Details: plasma
Metric: AUC(0-t) at 24 h (ng·h/mL)

| Compound | Metric | Result Units | Assay Result |
| --- | --- | --- | --- |
| CCCCOCCOc1ccc(-c2ccc3c(c2)/C=C(/C(=O)Nc2ccc([S@@+]([O-])Cc4cncn4CCC)cc2)CCCN3CC(C)C)cc1.CS(=O)(=O)O [CENICRIVIROC MESYLATE] | AUC(0-t) at 24 h | ng·h/mL | 7610 |

###

Assay: Cmax in cynomolgus monkey plasma at 3 mg/kg, po
Assay type: ADME, organism-based, Macaca fascicularis
Design: dose 3 mg/kg, route oral
Metric: Cmax (ng/mL)

| Compound | Assay Result |
| --- | --- |
| CCCCOCCOc1ccc(-c2ccc3c(c2)/C=C(/C(=O)Nc2ccc([S@@+]([O-])Cc4cncn4CCC)cc2)CCCN3CC(C)C)cc1.CS(=O)(=O)O [CENICRIVIROC MESYLATE] | 116 |

###

Test system: Human immunodeficiency virus 1
Test: Inhibition of replication of R5 HIV1 KK in PMBC
Assay type: functional, organism-based
Conditions: Human immunodeficiency virus 1, KK

| Compound | IC50 / pM |
| --- | --- |
| CCCCOCCOc1ccc(-c2ccc3c(c2)/C=C(/C(=O)Nc2ccc([S@@+]([O-])Cc4cncn4CCC)cc2)CCCN3CC(C)C)cc1.CS(=O)(=O)O [CENICRIVIROC MESYLATE] | 43 |

###

Target: C-C chemokine receptor type 1 (Homo sapiens, UniProt P32246)
Sequence (P32246 whole entry): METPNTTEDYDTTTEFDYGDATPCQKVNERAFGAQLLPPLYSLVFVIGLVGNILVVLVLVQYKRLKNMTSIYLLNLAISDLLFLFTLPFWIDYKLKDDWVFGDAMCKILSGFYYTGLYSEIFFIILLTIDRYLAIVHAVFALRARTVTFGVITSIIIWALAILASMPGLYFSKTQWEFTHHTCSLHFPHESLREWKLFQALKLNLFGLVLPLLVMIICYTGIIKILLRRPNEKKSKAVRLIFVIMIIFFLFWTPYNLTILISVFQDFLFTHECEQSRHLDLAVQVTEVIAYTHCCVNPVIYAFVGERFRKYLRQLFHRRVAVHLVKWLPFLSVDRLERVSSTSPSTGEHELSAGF
Test: Displacement of [125I]RANTES from CCR1 expressed in CHO cells
pIC50: −log10 of the molar value.

| Compound | System Under Test | pIC50 |
| --- | --- | --- |
| CCCCOCCOc1ccc(-c2ccc3c(c2)/C=C(/C(=O)Nc2ccc([S@@+]([O-])Cc4cncn4CCC)cc2)CCCN3CC(C)C)cc1.CS(=O)(=O)O [CENICRIVIROC MESYLATE] | C-C chemokine receptor type 1 (Homo sapiens, UniProt P32246) | < 5.00 |

###

Experiment: AUC (0-24h) in cynomolgus monkey at 3 mg/kg, po
Assay type: ADME, organism-based, Macaca fascicularis
Design: time < 24 hr, dose 3 mg/kg, route oral
Settings: plasma

| Molecule | AUC(0-t) at 24 h, ng·h/mL |
| --- | --- |
| CCCCOCCOc1ccc(-c2ccc3c(c2)/C=C(/C(=O)Nc2ccc([S@@+]([O-])Cc4cncn4CCC)cc2)CCCN3CC(C)C)cc1.CS(=O)(=O)O [CENICRIVIROC MESYLATE] | 670 |

###

Experiment: AUC (0-24h) in cynomolgus monkey at 1 mg/kg, iv
Type: ADME, organism-based, Macaca fascicularis
Set-up: time < 24 hr, dose 1 mg/kg, route intravenous
Details: plasma

| Compound | Result Units | AUC(0-t) at 24 h |
| --- | --- | --- |
| CCCCOCCOc1ccc(-c2ccc3c(c2)/C=C(/C(=O)Nc2ccc([S@@+]([O-])Cc4cncn4CCC)cc2)CCCN3CC(C)C)cc1.CS(=O)(=O)O [CENICRIVIROC MESYLATE] | ng·h/mL | 1450 |

###

Assay: Half life in cynomolgus monkey plasma at 1 mg/kg, iv
Format: ADME, organism-based, Macaca fascicularis
Parameters: dose 1 mg/kg, route intravenous

| Compound | half-life / min |
| --- | --- |
| CCCCOCCOc1ccc(-c2ccc3c(c2)/C=C(/C(=O)Nc2ccc([S@@+]([O-])Cc4cncn4CCC)cc2)CCCN3CC(C)C)cc1.CS(=O)(=O)O [CENICRIVIROC MESYLATE] | 365 |

###

Test: AUC (0-24h) in Sprague-Dawley rat at 3 mg/kg, po
Type: ADME, organism-based
Parameters: time < 24 hr, dose 3 mg/kg, route oral
Settings: plasma

| Molecule | AUC(0-t) at 24 h |
| --- | --- |
| CCCCOCCOc1ccc(-c2ccc3c(c2)/C=C(/C(=O)Nc2ccc([S@@+]([O-])Cc4cncn4CCC)cc2)CCCN3CC(C)C)cc1.CS(=O)(=O)O [CENICRIVIROC MESYLATE] | 2320 ng·h/mL |

###

Recorded IC90 by entry
Biological target: C-C chemokine receptor type 5 (Homo sapiens, UniProt P51681)
Sequence (P51681 whole entry, looked up): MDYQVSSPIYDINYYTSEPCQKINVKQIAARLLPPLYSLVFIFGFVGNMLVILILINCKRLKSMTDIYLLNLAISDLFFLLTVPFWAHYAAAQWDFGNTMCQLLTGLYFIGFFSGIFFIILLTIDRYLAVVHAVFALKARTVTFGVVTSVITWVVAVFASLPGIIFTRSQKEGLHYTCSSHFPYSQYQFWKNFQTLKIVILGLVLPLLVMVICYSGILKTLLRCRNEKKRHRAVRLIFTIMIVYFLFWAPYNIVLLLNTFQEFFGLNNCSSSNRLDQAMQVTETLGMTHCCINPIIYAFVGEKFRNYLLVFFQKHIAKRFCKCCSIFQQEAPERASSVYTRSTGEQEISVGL
Assay: Inhibition of replication of R5 HIV1 Ba-L in MOLT4/CCR5 cells
Format: functional, cell-based
Details: Human immunodeficiency virus 1, MOLT-4

| Molecule | IC90 [nM] |
| --- | --- |
| CCCCOCCOc1ccc(-c2ccc3c(c2)C=C(C(=O)Nc2ccc([S+]([O-])Cc4cncn4CCC)cc2)CCN3CC(C)C)cc1 (stereo not given) | 860 |
| CCCCOCCOc1ccc(-c2ccc3c(c2)/C=C(/C(=O)Nc2ccc([S@@+]([O-])Cc4cncn4CCC)cc2)CCCN3Cc2cnn(C)c2)cc1 | 11 |
| CCCCOCCOc1ccc(-c2ccc3c(c2)/C=C(/C(=O)Nc2ccc([S@@+]([O-])Cc4cncn4CCC)cc2)CCCN3CC(C)C)cc1.CS(=O)(=O)O [CENICRIVIROC MESYLATE] | 0.81 |
| CCCCOCCOc1ccc(-c2ccc3c(c2)/C=C(/C(=O)Nc2ccc([S@@+]([O-])Cc4cncn4CCC)cc2)CCCCN3CC(C)C)cc1 | 19 |
| CCCCOCCOc1ccc(-c2ccc3c(c2)/C=C(/C(=O)Nc2ccc([S@@+]([O-])Cc4nncn4CCC)cc2)CCCN3CC(C)C)cc1 | 10 |

###

Assay: Cmax in Beagle dog plasma at 3 mg/kg, po
Assay type: ADME, organism-based, Canis lupus familiaris
Parameters: dose 3 mg/kg, route oral
Metric: Cmax (ng/mL)

| Compound | Assay Result |
| --- | --- |
| CCCCOCCOc1ccc(-c2ccc3c(c2)/C=C(/C(=O)Nc2ccc([S@@+]([O-])Cc4cncn4CCC)cc2)CCCN3CC(C)C)cc1.CS(=O)(=O)O [CENICRIVIROC MESYLATE] | 570 |

###

Assay: Plasma concentration in Sprague-Dawley rat after 5 min at 1 mg/kg, iv
Format: ADME, organism-based
Design: dose 1 mg/kg, route intravenous

| Compound | concentration at 5 min |
| --- | --- |
| CCCCOCCOc1ccc(-c2ccc3c(c2)/C=C(/C(=O)Nc2ccc([S@@+]([O-])Cc4cncn4CCC)cc2)CCCN3CC(C)C)cc1.CS(=O)(=O)O [CENICRIVIROC MESYLATE] | 8020 ng/mL |

###

Biological target: C-C chemokine receptor type 4 (Homo sapiens, UniProt P51679)
Sequence (P51679 whole entry): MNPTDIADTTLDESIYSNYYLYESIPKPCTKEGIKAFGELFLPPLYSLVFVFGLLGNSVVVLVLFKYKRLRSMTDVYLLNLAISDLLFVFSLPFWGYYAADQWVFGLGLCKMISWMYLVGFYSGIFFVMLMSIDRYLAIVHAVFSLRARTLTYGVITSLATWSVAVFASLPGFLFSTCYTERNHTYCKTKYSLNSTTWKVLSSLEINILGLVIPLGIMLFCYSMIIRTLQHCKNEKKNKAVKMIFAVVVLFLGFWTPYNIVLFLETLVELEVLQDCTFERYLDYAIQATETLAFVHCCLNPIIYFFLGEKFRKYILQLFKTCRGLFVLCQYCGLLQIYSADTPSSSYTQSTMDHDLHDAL
Assay: Displacement of [125I]TARC from CCR4 expressed in CHO cells
pIC50: −log10 of the molar value.
Metric: pIC50

| Molecule | Metric | Assay Result |
| --- | --- | --- |
| CCCCOCCOc1ccc(-c2ccc3c(c2)/C=C(/C(=O)Nc2ccc([S@@+]([O-])Cc4cncn4CCC)cc2)CCCN3CC(C)C)cc1.CS(=O)(=O)O [CENICRIVIROC MESYLATE] | pIC50 | 5.96 |

###

Experiment: AUC (0-24h) in Beagle dog at 1 mg/kg, iv
Type: ADME, organism-based, Canis lupus familiaris
Design: time < 24 hr, dose 1 mg/kg, route intravenous
Details: plasma

| Molecule | AUC(0-t) at 24 h [ng·h/mL] |
| --- | --- |
| CCCCOCCOc1ccc(-c2ccc3c(c2)/C=C(/C(=O)Nc2ccc([S@@+]([O-])Cc4cncn4CCC)cc2)CCCN3CC(C)C)cc1.CS(=O)(=O)O [CENICRIVIROC MESYLATE] | 2310 |

###

Experiment: Half life in Beagle dog plasma at 1 mg/kg, iv
Type: ADME, organism-based, Canis lupus familiaris
Design: dose 1 mg/kg, route intravenous
Metric: half-life (min)

| Compound | Metric | Result Units | Assay Result |
| --- | --- | --- | --- |
| CCCCOCCOc1ccc(-c2ccc3c(c2)/C=C(/C(=O)Nc2ccc([S@@+]([O-])Cc4cncn4CCC)cc2)CCCN3CC(C)C)cc1.CS(=O)(=O)O [CENICRIVIROC MESYLATE] | half-life | min | 302 |
